# TEST DESCRIPTION: Rat 5-day infusion pharmacokinetic study
# MEASUREMENT SETUP: female, plasma, intravenous
Residues, ends and D or L forms follow the SMILES beside them. *: point of attachment. Myristoyl = CCCCCCCCCCCCCC(=O)*
MEASURED METRIC: Tmax (min)
Response body: numeric value in min, unit text excluded.

Req: Can you look up the measured Tmax of CCCCCCCCCCCCCC(=O)N[C@@H](Cc1ccccc1)C(=O)N[C@@H](CCC(=O)O)C(=O)N[C@@H](CCC(=O)O)C(=O)N[C@@H](CCC(=O)O)C(=O)N[C@@H](CCCNC(=N)N)C(=O)N[C@@H](CC(C)C)C(=O)O [M3mP6, Myr-FEEERL (SEQ ID NO: 8)] (Myristoyl-FEEERL-OH; C-terminus assumed) for me?
Resp: 4.8
